- experimental target: CodB (Proteus vulgaris)
- Sequence (A0A6G6SKI1 entry or part of it): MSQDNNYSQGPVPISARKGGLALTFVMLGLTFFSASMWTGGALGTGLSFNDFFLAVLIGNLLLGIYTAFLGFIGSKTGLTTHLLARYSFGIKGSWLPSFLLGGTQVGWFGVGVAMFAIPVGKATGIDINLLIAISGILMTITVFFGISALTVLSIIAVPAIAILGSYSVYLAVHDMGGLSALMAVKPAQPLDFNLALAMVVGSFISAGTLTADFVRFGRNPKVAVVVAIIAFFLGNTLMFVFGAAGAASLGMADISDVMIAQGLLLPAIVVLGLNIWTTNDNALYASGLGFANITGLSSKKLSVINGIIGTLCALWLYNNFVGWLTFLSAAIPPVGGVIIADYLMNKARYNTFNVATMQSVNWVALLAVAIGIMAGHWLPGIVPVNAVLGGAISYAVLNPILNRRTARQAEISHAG
- procedure text: crystal structure at […] Å; GFP thermostability assay titration (Kd); sodium-dependent 3H-cytosine uptake in cells
- Format: binding
- Set-up: CodB from P. vulgaris expressed as CodB-GFP fusion (GFP-TS assay); cleaved with 3C protease for crystallisation
measured parameter: Kd (µM)
Answer in µM, number only, no unit symbol.

Using the record for Nc1cc[nH]c(=O)n1 , report its Kd.
51

* * *

- experimental target: CodB (Proteus vulgaris)
- procedure text: GFP thermostability assay titration (Kd); inhibition of 3H-cytosine uptake in cells
- Assay type: binding
- Design: CodB from P. vulgaris expressed as CodB-GFP fusion, detergent-solubilised membranes
measured parameter: pKd
Give only the number. pKd is defined as minus log10 of concentration in molar units.

Using the record for Nc1nc(=O)[nH]cc1F [5-fluorocytosine] , report its pKd.
3.55
